# Target desc: Ribosomal protein S6 kinase alpha-3 (Homo sapiens, UniProt P51812)
# Sequence (P51812 whole entry): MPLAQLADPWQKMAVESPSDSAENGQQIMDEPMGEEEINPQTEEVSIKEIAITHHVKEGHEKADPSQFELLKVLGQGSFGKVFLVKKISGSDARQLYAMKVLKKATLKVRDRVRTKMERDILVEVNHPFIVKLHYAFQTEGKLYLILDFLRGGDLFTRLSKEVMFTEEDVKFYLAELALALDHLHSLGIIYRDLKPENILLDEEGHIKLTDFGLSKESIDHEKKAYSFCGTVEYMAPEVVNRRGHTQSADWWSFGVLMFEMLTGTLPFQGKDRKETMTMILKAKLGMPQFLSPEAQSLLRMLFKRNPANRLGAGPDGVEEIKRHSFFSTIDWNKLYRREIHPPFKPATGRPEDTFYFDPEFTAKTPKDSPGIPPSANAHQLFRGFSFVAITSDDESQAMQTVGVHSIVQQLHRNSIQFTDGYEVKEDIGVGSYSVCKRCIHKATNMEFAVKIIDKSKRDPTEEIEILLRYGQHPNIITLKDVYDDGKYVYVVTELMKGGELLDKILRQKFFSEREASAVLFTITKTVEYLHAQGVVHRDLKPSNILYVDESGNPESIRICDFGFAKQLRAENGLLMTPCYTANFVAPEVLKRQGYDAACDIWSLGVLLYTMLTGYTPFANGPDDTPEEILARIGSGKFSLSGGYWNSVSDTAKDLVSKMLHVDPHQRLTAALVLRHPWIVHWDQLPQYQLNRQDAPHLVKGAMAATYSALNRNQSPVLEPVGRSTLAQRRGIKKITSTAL
# Test name: Inhibition of full length human GST-tagged RSK2 using Ulight-rpS6 as substrate incubated for 1 hr in presence of ATP by TR FRET assay
Quantity name: pIC50
Reminder that pIC50 is minus the log10 of a molar concentration.

Completed entries (count: 8):
• CC(C)CCN1CC(=O)Nc2cnc(Nc3cc(F)c(O)c(F)c3)nc21 = 7.63
• CC(C)CCN1CC(=O)Nc2cnc(Nc3ccc(O)c(F)c3)nc21 = 7.42
• CC(C)CCN1c2nc(Nc3ccc(O)c(F)c3)ncc2N(C)C(=O)C1C (stereo not given) = 7.60
• CC(C)CCN1CC(=O)N(C)c2cnc(Nc3cc(F)c(O)c(F)c3)nc21 = 7.75
• CC(C)CCN1c2nc(Nc3ccc(O)c(Cl)c3)ncc2N(C)C(=O)C1C (stereo not given) = 7.15
• CC(C)CCN1c2nc(Nc3ccc(O)c(Br)c3)ncc2N(C)C(=O)C1C (stereo not given) = 6.85
• CC(C)CCN1c2nc(Nc3cc(F)c(O)c(F)c3)ncc2NC(=O)C1C (stereo not given) = 7.74
• CC(C)CCN1CC(=O)N(C)c2cnc(Nc3ccc(O)c(F)c3)nc21 = 7.61

Memo: CC(C)CCN1c2nc(Nc3ccc(CO)cc3)ncc2N(C)C(=O)C1C (stereo not given) , reported pIC50: 6.13

According to the records, this compound CC(C)CCN1c2nc(Nc3ccc(O)cc3)ncc2N(C)C(=O)C1C (stereo not given) displays pIC50 of 7.26

###

# Target desc: Bromodomain-containing protein 4 (Homo sapiens, UniProt O60885)
# Test name: Binding affinity to BRD4 bromodomain 1 (unknown origin) by ITC assay
Quantity name: Kd (µM)
Numbers only; they are read as µM.

# value of Kd, Bromodomain-containing protein 4 (Homo sapiens, UniProt O60885), item CC(C)CCN1c2nc(Nc3cc(F)c(O)c(F)c3)ncc2N(C)C(=O)C1C (stereo unspecified) = 3.5

###

# Target desc: Ribosomal protein S6 kinase alpha-3 (Homo sapiens, UniProt P51812)
# Test name: Inhibition of RSK2 (unknown origin)
Quantity name: IC50 (nM)
Express the result in nM but write the number alone.

Bench note, Ribosomal protein S6 kinase alpha-3 (Homo sapiens, UniProt P51812): `Oc1c(F)cc(-c2cnccc2-c2ccc(N3CCOCC3)cc2)cc1F` , IC50 reads 5

###

# Target desc: Ribosomal protein S6 kinase alpha-3 (Homo sapiens, UniProt P51812)
# Test name: Inhibition of full length human GST-tagged RSK2 using Ulight-rpS6 as substrate at 10 uM incubated for 1 hr in presence of ATP by TR FRET assay
Entries annotated with measured inhibition
Express it in %; write the number only.

• Nc1cnc(Nc2cc(F)c(O)c(F)c2)nc1N = 38
• CC(C)CCN1c2nc(Nc3cc(F)cc(F)c3)ncc2N(C)C(=O)C1C (stereo not drawn) = 71
• COc1c(F)cc(Nc2ncc3c(n2)N(CCC(C)C)C(C)C(=O)N3C)cc1F (stereo not drawn) = 43
• Nc1nc(Nc2cc(F)c(O)c(F)c2)ncc1[N+](=O)[O-] = 72
• CC(C)CCN1c2nc(Nc3cc(Cl)c(O)c(Cl)c3)ncc2N(C)C(=O)C1C (stereo not drawn) = 83
• CC(C)CCN1c2nc(Nc3cc(Br)c(O)c(Br)c3)ncc2N(C)C(=O)C1C (stereo not drawn) = 78
• Oc1c(F)cc(Nc2ncccn2)cc1F = 45

Result for CC1Nc2nc(Nc3cc(F)c(O)c(F)c3)ncc2NC1=O (stereo not drawn) , tested on Ribosomal protein S6 kinase alpha-3 (Homo sapiens, UniProt P51812), inhibition: 83

###

# Target desc: Ribosomal protein S6 kinase alpha-1 (Homo sapiens)
# Sequence (Q15418 whole entry): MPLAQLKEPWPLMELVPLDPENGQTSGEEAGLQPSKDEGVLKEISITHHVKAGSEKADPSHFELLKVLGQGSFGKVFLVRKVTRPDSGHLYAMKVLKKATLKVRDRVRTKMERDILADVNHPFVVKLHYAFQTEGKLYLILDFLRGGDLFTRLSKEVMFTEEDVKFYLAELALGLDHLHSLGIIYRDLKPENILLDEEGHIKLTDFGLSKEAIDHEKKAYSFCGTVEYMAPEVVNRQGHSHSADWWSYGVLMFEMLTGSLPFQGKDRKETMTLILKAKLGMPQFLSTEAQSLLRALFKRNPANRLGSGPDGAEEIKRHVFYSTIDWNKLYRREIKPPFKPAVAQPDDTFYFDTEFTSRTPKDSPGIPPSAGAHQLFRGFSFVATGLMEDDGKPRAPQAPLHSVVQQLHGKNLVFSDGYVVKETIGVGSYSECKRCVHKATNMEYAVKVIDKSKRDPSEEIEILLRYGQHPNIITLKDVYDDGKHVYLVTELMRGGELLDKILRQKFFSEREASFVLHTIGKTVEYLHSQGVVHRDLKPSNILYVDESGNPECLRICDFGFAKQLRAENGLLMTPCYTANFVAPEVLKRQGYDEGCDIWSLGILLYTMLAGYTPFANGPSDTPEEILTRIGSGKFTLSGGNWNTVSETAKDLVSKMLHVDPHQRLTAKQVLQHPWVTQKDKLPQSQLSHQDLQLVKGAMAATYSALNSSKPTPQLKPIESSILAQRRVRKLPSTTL
Quantity name: IC50 (nM)
Answer with a number only, understood to be in nM.

`Oc1c(F)cc(-c2cnccc2-c2ccc(N3CCOCC3)cc2)cc1F` tested on Ribosomal protein S6 kinase alpha-1 (Homo sapiens) gave IC50: 6

###

# Target desc: Ribosomal protein S6 kinase alpha-2 (Homo sapiens, UniProt Q15349)
# Sequence (Q15349 whole entry): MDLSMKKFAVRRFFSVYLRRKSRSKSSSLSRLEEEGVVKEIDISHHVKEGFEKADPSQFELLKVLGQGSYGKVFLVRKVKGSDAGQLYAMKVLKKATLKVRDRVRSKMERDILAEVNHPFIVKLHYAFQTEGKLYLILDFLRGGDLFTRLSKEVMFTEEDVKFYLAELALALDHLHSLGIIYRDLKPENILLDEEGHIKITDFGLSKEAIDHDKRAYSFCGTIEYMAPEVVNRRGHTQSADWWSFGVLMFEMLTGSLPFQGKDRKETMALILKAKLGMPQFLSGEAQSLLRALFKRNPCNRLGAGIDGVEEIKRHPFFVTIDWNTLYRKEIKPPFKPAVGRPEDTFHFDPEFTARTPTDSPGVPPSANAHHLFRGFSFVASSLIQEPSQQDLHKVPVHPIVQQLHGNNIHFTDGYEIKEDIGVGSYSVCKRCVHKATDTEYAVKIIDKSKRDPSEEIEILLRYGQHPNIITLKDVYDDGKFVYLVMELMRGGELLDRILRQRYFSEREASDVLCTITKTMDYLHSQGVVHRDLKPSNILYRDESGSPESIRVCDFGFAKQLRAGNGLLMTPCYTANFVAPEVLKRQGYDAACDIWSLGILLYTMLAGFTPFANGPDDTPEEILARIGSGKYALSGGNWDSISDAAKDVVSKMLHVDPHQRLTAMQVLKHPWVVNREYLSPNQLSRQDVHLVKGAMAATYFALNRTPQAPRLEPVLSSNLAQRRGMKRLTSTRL
Quantity name: pIC50
pIC50 here is simply -log10 of the concentration when that concentration is written in mol/L.

Test item `Oc1c(F)cc(-c2cnccc2-c2ccc(N3CCOCC3)cc2)cc1F` ; Ribosomal protein S6 kinase alpha-2 (Homo sapiens, UniProt Q15349); reported pIC50 was 8.40
